// reported kon per item
# study.system: T1, human PCSK9 (human, UniProt Q8NBP7 31-692)
# T1 construct: also called hPCSK9; proprotein convertase subtilisin-kexin type 9
# T1 sequence (Q8NBP7 31-692 limits assumed): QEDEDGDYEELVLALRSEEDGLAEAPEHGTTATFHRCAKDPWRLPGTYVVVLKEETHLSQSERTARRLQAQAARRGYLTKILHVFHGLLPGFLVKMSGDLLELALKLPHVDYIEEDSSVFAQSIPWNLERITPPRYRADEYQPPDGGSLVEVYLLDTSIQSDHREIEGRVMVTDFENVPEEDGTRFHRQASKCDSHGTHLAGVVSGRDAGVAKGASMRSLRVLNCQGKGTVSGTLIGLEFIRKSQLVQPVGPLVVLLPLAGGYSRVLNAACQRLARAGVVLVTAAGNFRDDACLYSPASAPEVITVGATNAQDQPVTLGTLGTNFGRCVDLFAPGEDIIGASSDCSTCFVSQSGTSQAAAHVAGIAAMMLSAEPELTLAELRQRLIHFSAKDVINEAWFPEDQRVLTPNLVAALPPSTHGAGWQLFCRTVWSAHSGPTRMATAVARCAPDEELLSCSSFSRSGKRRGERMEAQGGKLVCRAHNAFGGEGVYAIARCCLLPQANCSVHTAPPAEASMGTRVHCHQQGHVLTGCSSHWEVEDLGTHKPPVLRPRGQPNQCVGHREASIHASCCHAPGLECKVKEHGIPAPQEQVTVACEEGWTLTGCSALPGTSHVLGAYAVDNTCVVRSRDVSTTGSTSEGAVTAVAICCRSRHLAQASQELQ
# test.details: SPR (Biacore), Fab captured by anti-Fab IgG, 1:1 fit
# unit: M⁻¹ s⁻¹ | format: bare number

Examples with their reported kon follow.
| binder | kon, M⁻¹ s⁻¹ |
| --- | --- |
| AX137 Fab (Fab, V domains shown, Tested as purified Fab) VH: EVQLLESGGGLVQPGGSLRLSCKASGYTFSSYGMYWVRQAPGKGLEWIGWIDPGSGGTKYNEKFKGKATISRDNSKNTLYLQMNSLRAEDTAVYYCARERYGYYFDYWGQGTLVTVSS VL: EIVLTQSPATLSLSPGERATITCRASQYIGSYLNWYQQKPGQAPRLLIYDASNRATGIPARFSGSGSGTDFTLTISSLEPEDFAVYYCQAWDSSPPVVFGGGTKVEIK | 107000 |
| AX210 Fab (Fab, V domains shown, Tested as purified Fab) VH: QVQLLESGGGLVQPGGSLRLSCKASGYTFSSYSIYWVRQAPGKGLEWIGWIDPGNGGTRYNQKFQSKATISRDNSKNTLYLQMNSLRAEDTAVYYCARARVGYSLDYWGQGTLVTVSS VL: EIVLTQSPATLSLSPGERATITCRASQYVGSYLNWYQQKPGQAPRLLIYDASNRATGIPARFSGSGSGTDFTLTISSLEPEDFAVYYCQVWDSSPPVVFGGGTKVEIK | 172000 |
| AX211 Fab (Fab, V domains shown, Tested as purified Fab) VH: QVQLLESGGGLVQPGGSLRLSCKASGYTFSRQGFTWVRQAPGKGLEWIGWIDPGNGGTRYNEKFKGKATISRDNSKNTLYLQMNSLRAEDTAVYYCARYRVGYSLDYWGQGTLVTVSS VL: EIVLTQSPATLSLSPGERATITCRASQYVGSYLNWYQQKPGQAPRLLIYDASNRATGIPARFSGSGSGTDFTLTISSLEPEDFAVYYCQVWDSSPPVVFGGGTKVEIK | 197000 |

binder AX139 Fab (Fab, V domains shown, Tested as purified Fab) VH: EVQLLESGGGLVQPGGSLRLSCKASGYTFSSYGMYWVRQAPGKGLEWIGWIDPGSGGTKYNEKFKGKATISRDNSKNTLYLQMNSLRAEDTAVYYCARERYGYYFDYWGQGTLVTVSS VL: EIVLTQSPATLSLSPGERATITCRASQYVGSYLNWYQQKPGQAPRLLIYDAANRATGIPARFSGSGSGTDFTLTISSLEPEDFAVYYCQVWDSSPPVVFGGGTKVEIK , kon observed: 89700
